- protocol_summary: In vivo pharmacokinetics after oral (intragastric) administration to rats
- assay_context: male, Wistar, whole blood, po, 88 umol/kg; rat, single intragastric dose 88 µmol/kg, blood; read-out: time of maximum blood levels (converted)
result_type: Tmax

Ask: Reported Tmax, compound CN(CCCCOC1C(O)C(O)OC(CO)C1O)C(=O)Oc1ccc(C=Cc2cc(OC(=O)N(C)CCCCOC3C(O)C(O)OC(CO)C3O)cc(OC(=O)N(C)CCCCOC3C(O)C(O)OC(CO)C3O)c2)cc1 (stereo not shown) : ____
Reply: ~1 h
